Where do these numbers come from? They come from patent US20180355043A1.

ECL signal values by entry
Biological target: T1, DR4G97: Human HLA-DRA1*01:02/DRB1*15:01 ECD with collagen II peptide CII_1236-1249 (human)
T1 construct: also called DRB1*15:01 CII_1236
Assay: MSD ECL; antigen coated; protocol of Example 3;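 further: antibodies tested at 0.04–5 µg/ml on plate-coated soluble HLA-DR carrying peptide on the beta chain N-terminus, bound antibody detected by SulfoTag anti-human kappa secondary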
measurement name: ECL signal (ECL)

DR4B5 (antibody, V domains shown, also called apolizumab (1D10) re-engineered as IgG2sigma) VH: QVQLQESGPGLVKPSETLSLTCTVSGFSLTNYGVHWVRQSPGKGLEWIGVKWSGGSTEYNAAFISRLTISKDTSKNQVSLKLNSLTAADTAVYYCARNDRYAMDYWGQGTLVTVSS VL: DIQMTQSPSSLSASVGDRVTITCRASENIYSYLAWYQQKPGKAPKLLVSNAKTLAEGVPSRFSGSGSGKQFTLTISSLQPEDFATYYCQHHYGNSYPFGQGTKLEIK
256
DR4B127 (antibody, human IgG2, kappa, V domains shown, also called VH DR4H7 / VL PH9L3) VH: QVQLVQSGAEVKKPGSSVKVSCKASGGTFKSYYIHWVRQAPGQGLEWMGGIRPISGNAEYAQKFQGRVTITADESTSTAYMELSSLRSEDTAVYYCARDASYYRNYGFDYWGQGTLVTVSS VL: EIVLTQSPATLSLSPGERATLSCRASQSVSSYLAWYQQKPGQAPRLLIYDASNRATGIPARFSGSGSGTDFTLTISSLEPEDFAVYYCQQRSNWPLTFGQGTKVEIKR
748000
DR4B6 (antibody, V domains shown, also called L243 re-engineered as IgG2sigma) VH: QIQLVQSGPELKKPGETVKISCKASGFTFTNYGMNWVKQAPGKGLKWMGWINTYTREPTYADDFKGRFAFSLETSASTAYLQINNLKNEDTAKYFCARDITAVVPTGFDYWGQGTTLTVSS VL: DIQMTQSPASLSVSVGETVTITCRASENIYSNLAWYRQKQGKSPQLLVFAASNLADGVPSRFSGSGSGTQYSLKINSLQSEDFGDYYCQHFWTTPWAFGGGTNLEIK
222000
